Assign EC50 to each entry below.
Target: T1, Human LRP-8 (isoform 3) expressed on cells (human, UniProt Q14114 33-963)
T1 construct: also called hLRP-8; huLRP-8
T1 sequence (Q14114 other isoform, or with tags, fused parts or gaps limits assumed): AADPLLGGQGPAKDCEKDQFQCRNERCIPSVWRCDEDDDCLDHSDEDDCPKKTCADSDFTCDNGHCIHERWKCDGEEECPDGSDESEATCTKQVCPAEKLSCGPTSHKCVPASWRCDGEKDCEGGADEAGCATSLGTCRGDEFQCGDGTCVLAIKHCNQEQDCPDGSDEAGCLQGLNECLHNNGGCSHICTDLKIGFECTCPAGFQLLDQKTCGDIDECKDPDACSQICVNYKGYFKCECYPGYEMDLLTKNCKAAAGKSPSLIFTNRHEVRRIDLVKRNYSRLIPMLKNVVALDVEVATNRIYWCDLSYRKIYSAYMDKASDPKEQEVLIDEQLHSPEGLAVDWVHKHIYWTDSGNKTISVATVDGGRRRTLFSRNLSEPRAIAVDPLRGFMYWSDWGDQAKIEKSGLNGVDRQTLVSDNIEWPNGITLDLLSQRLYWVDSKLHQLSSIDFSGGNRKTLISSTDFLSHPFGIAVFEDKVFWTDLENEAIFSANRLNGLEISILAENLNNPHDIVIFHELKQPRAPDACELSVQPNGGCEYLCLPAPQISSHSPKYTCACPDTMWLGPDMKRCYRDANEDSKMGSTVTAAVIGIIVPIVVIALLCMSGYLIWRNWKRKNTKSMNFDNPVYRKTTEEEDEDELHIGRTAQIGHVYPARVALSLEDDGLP
Experiment: cell-based binding assay, hLRP8
Numbers only, in nM.

{"binder": "anti-LRP-8 BGK-7F7 chimeric antibody (CL-105960) (antibody, V domains shown) VH: QVTLKESGPGILQPSQTLSLTCTFSGFSLSTYGLGVGWIRQPSGKGLEWLANIWWDDAKYYNPSLKNRLTISKDTSNNQAFLKIPNVDTADTARYYCARTTKPYYFDYWGQGVMVTVSS VL: HFVLAQPNSVSTNLGSTVKLSCKRSTANIGSNYVNWYQQHEGRSPTTLIYRDDRRPDGVPDRFSGSIDRSSNSALLTINNVQTEDEADYFCQSYSSGINIFGGGTKLTVL", "experimental-readout": "EC50", "measured-number": 0.11}

The following binders each have a reported value; give each one's EC50.
1. anti-LRP-8 BGK-2H4 chimeric antibody (CL-105945) (antibody, V domains shown) VH: EVQLVESGGGLVQPGRSMKLSCAASGFTFSSFPMAWVRQAPTKGLEWVATVSTRGGHTYYRDSVKGRFTISRDNAKNTLYLQMNSLRSEDTATYYCIREGTSLFAYWGQGTLVTVSS VL: DIQMTQSPPSLSASLGETVSIECLASEDISNYLAWYQQKPGKSPQLLIYYANSLEDGVPSRFSGSGSGTQYSLKISNMQPEDEGVYHCQQGYNYPYTFGAGTKLELK
2. anti-LRP-8 BGK.6E3.F4 [r/m IgG2a/K] (antibody, V domains shown, Rat variable domains on mouse IgG2a/kappa) VH: EVQLVESGGGLVQPGKSLKLSCAASGFTFSDYNMAWVRQAPKKGLEWVATIMYDGSRTFYRDSVKGRYTFSRDNAKSTLYLQMDSLRSEDTATYYCATGRNWFAYWGQGTLVTVSS VL: DIIMTQSPSSLAVSAGETVTINCKSSQSLLSSGKQKNYLAWYQQKPGQSPKLLIYLASTRESGVPDRFIGSGSGTDFTLTISSMQAEDLAIYYCQQHYDTPLTFGSGTKLEIK
3. anti-LRP-8 BGK-7A11 chimeric antibody (CL-105959) (antibody, V domains shown) VH: QVTLKESGPGILQPSQTLSLTCTFSGFSLSTYGMGVGWIRQPAGTGLEWLANIWWDDDKYYNPSLKNRLTISKDTSNNQVFLKITNVDTADTATYYCARTTKPYYFDYWGQGVMVTVSS VL: HFVLAQPNSVSTNLGSTVKLSCKRSTGNSGSNYVNWYQQYEGRSPTTMIYRDDKRPDGVPDRFSGSIDRSSNSALLTINNVQTEDEADYFCQSYSSGINIFGGGTKLTVL
4. chimeric anti-LRP-8 ML201-8F3.3D7 antibody (antibody, V domains shown, also called ML201.8F3.3D7 hFc; CL-33866) VH: EVQLVESGGDLVKPGGSLKLSCAASRFTFSNFGMSWVRQTPDKRLEWVATISSGGRYTYYPDSVKGRFTISRDNAKNTLYLQMSSLRSEDTAMYYCARDYLYAMDYWGQGTSVTVSS VL: DVVMTQTPLSLPVSLGDQASISCRSSQSLVYSNGNTYLHWYLQKPGQSPKVLMYKVSNRFSGVSDRFSGSGSGTDFTLKISRVEAEDLGVYFCSQSTHVPLTFGAGTKLELK

Data returned:
1. 0.21
2. 0.11
3. 0.12
4. 0.16

Where do the numbers come from? From patent US20160200813A1.
